biological target: CDC42BPB (human); assay: KINOMEscan competition binding; conditions: compound 10.0 µM
PROPERTY_NAME: kinase still bound, per cent of control (%)
Respond with the bare value in %.

In: Look up kinase still bound, per cent of control: CCN(CC)CCCCNc1ncc2cc(-c3cc(OC)cc(OC)c3)c(NC(=O)NC(C)(C)C)nc2n1
Out: 100

In: # iterate: C=CC(=O)Nc1ccc(CN(C(=O)Nc2c(Cl)c(OC)cc(OC)c2Cl)c2cc(Nc3ccc(N4CCN(C)CC4)cc3)ncn2)cc1
Out: 100

In: Same thing, different compound: COc1cc2ncnc(-n3nc(-c4ccccn4)nc3N)c2cc1OC
Out: 100

In: Same question, C[C@@H](Oc1cc(-c2cnn(C3CCNCC3)c2)cnc1N)c1c(Cl)ccc(F)c1Cl this time
Out: 62

In: Consider next the compound COc1cc(N2CCN(C)CC2)ccc1Nc1ncc2c(n1)N(C)c1ccccc1C(=O)N2C in the same way.
Out: 100

In: // query: COc1cc(C(=O)N2CCC(N3CCN(C)CC3)CC2)ccc1Nc1ncc2c(n1)N(C)c1ccccc1C(=O)N2C
Out: 100

In: Try C=CC(=O)Nc1cc(-n2c(=O)ccc3cnc4ccc(-c5cn[nH]c5)cc4c32)ccc1C next.
Out: 97

In: # repeat for COCC(=O)NC/C=C/c1ccc2ncnc(Nc3ccc(Oc4ccc(C)nc4)c(C)c3)c2c1
Out: 96

In: Record: O=c1cc(N2CCOCC2)oc2c(-c3cccc4c3sc3ccccc34)cccc12
Out: 88

In: Next compound: CN(C)C/C=C/C(=O)Nc1ccc(C(=O)Nc2cccc(Nc3nccc(-c4cccnc4)n3)c2)cc1
Out: 100

In: Item: O=C1NC(=O)/C(=C/c2ccc3nccc(-c4ccncc4)c3c2)S1
Out: 66

In: Another: N#CCNC(=O)c1ccc(-c2ccnc(Nc3ccc(N4CCOCC4)cc3)n2)cc1
Out: 42

In: Now consider CCN(CC)CCCCNc1ncc2c(n1)N(C)C(=O)N(c1c(Cl)c(OC)cc(OC)c1Cl)C2 and answer again.
Out: 100

In: Again, but for CCN1CCN(C(=O)Cc2ccc(Nc3ncc(F)c(Nc4ccc(C(=O)Nc5ccccc5Cl)cc4)n3)cc2)CC1
Out: 100

In: // repeat for Cc1n[nH]c2ccc(-c3cncc(OC[C@@H](N)Cc4c[nH]c5ccccc45)c3)cc12 and report
Out: 1

In: Same lookup for O=C(Nc1cccc(Nc2ncc(Br)c(NCCc3cnc[nH]3)n2)c1)N1CCCC1 , please.
Out: 82

In: // query: NC(=O)Nc1cc(-c2cccc(F)c2)sc1C(=O)N[C@@H]1CCCNC1
Out: 74

In: Another compound to check: CS(=O)(=O)N1CCN(Cc2cc3nc(-c4cccc5[nH]ncc45)nc(N4CCOCC4)c3s2)CC1
Out: 100

In: Okay, and CNC(=O)c1cc(Oc2ccc(NC(=O)Nc3ccc(Cl)c(C(F)(F)F)c3)cc2)ccn1 ?
Out: 100

* * *

molecular target: PIM1 (human); experiment: KINOMEscan competition binding; conditions: compound 10.0 µM
Give kinase still bound, per cent of control for every item shown.
Quick reminder: number only, in %, skip the unit.

In: Find the recorded kinase still bound, per cent of control belonging to CCN(CC)CCCCNc1ncc2c(n1)N(C)C(=O)N(c1c(Cl)c(OC)cc(OC)c1Cl)C2 and report it.
Out: 100

In: Moving on to COc1cc(C(=O)N2CCC(N3CCN(C)CC3)CC2)ccc1Nc1ncc2c(n1)N(C)c1ccccc1C(=O)N2C
Out: 100

In: And what about the molecule O=C(Nc1cccc(Nc2ncc(Br)c(NCCc3cnc[nH]3)n2)c1)N1CCCC1 ?
Out: 87

In: Could you do the same for COCC(=O)NC/C=C/c1ccc2ncnc(Nc3ccc(Oc4ccc(C)nc4)c(C)c3)c2c1 , please?
Out: 100

In: Similarly, NC(=O)Nc1cc(-c2cccc(F)c2)sc1C(=O)N[C@@H]1CCCNC1 ?
Out: 48

* * *

molecular target: MAP3K10 (human) (UniProt Q02779); experiment: KINOMEscan competition binding; settings: compound 10.0 µM
Sequence (Q02779 whole entry, looked up): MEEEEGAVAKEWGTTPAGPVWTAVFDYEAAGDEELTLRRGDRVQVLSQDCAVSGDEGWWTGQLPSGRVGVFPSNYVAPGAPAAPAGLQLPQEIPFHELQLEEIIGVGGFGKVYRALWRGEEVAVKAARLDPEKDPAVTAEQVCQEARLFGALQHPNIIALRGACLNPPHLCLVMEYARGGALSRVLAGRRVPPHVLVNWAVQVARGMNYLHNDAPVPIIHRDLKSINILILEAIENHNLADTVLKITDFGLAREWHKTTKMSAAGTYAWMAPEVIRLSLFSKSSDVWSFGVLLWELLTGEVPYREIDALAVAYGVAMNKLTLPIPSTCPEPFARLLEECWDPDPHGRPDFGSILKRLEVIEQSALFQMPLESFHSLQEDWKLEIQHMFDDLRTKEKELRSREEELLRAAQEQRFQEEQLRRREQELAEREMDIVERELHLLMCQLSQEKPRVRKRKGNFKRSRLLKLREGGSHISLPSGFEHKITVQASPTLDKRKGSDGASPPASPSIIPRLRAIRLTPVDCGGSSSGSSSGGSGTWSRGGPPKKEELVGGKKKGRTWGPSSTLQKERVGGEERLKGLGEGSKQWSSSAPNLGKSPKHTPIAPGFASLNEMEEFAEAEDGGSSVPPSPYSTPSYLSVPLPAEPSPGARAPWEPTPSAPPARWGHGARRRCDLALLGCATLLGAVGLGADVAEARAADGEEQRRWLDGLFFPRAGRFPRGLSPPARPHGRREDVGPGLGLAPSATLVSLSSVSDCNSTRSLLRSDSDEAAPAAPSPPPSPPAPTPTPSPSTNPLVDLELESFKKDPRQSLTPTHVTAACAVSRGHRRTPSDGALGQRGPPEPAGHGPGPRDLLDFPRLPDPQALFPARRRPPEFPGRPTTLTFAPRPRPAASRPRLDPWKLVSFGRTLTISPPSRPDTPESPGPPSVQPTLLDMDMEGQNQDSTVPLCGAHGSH
Can you tell me kinase still bound, per cent of control for the items I'm about to list?
Expressed in %, but write only the number.

In: Form: Entry = C=CC(=O)Nc1ccc(CN(C(=O)Nc2c(Cl)c(OC)cc(OC)c2Cl)c2cc(Nc3ccc(N4CCN(C)CC4)cc3)ncn2)cc1 | System = MAP3K10 (human) (UniProt Q02779) | kinase still bound, per cent of control = ____
Out: 13

In: Do the same for CCN(CC)CCCCNc1ncc2cc(-c3cc(OC)cc(OC)c3)c(NC(=O)NC(C)(C)C)nc2n1 please
Out: 100

In: Entry CS(=O)(=O)N1CCN(Cc2cc3nc(-c4cccc5[nH]ncc45)nc(N4CCOCC4)c3s2)CC1 please
Out: 100

In: Another molecule: NC(=O)Nc1cc(-c2cccc(F)c2)sc1C(=O)N[C@@H]1CCCNC1
Out: 1.2

In: And what about the molecule CCN(CC)CCCCNc1ncc2c(n1)N(C)C(=O)N(c1c(Cl)c(OC)cc(OC)c1Cl)C2 ?
Out: 100

In: Cool, now C[C@@H](Oc1cc(-c2cnn(C3CCNCC3)c2)cnc1N)c1c(Cl)ccc(F)c1Cl
Out: 79

In: Subsequent entry: O=C1NC(=O)/C(=C/c2ccc3nccc(-c4ccncc4)c3c2)S1
Out: 60

In: Try this molecule next: COc1cc2ncnc(-n3nc(-c4ccccn4)nc3N)c2cc1OC
Out: 62

In: Likewise for COCC(=O)NC/C=C/c1ccc2ncnc(Nc3ccc(Oc4ccc(C)nc4)c(C)c3)c2c1 ?
Out: 100

* * *

Would you kindly list kinase still bound, per cent of control for each of these compounds?
molecular target: UniProt P49760; assay: KINOMEscan competition binding; conditions: compound 10.0 µM
Sequence (P49760 whole entry, looked up): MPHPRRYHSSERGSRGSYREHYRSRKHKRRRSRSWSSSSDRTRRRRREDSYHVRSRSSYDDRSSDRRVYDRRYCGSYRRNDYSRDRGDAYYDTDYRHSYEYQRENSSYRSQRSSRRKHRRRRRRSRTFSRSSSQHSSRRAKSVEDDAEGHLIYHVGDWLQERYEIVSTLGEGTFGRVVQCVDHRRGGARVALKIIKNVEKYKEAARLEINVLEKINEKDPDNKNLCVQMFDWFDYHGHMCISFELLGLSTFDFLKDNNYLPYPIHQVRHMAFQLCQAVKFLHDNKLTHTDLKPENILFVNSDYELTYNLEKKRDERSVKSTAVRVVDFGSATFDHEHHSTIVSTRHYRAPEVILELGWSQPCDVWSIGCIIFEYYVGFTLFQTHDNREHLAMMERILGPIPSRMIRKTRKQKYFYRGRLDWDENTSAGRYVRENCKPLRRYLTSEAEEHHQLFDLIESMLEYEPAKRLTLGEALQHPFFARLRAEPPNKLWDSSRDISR
Reply numerically in %, unit not repeated.

In: Would you kindly share the measured kinase still bound, per cent of control for C[C@@H](Oc1cc(-c2cnn(C3CCNCC3)c2)cnc1N)c1c(Cl)ccc(F)c1Cl ?
Out: 68

In: Please give the result for COc1cc(C(=O)N2CCC(N3CCN(C)CC3)CC2)ccc1Nc1ncc2c(n1)N(C)c1ccccc1C(=O)N2C too.
Out: 72

In: Then CCN(CC)CCCCNc1ncc2cc(-c3cc(OC)cc(OC)c3)c(NC(=O)NC(C)(C)C)nc2n1 ?
Out: 100

In: Also CCN(CC)CCCCNc1ncc2c(n1)N(C)C(=O)N(c1c(Cl)c(OC)cc(OC)c1Cl)C2 , if possible.
Out: 100

In: Next record, please: COc1cc(N2CCN(C)CC2)ccc1Nc1ncc2c(n1)N(C)c1ccccc1C(=O)N2C
Out: 100

In: Could you do the same for NC(=O)Nc1cc(-c2cccc(F)c2)sc1C(=O)N[C@@H]1CCCNC1 , please?
Out: 0.65

In: Continue with O=C(Nc1cccc(Nc2ncc(Br)c(NCCc3cnc[nH]3)n2)c1)N1CCCC1
Out: 2.2

In: Same question, C=CC(=O)Nc1cc(-n2c(=O)ccc3cnc4ccc(-c5cn[nH]c5)cc4c32)ccc1C this time
Out: 1.6

In: Try this compound too: COCC(=O)NC/C=C/c1ccc2ncnc(Nc3ccc(Oc4ccc(C)nc4)c(C)c3)c2c1
Out: 75

In: Request: C=CC(=O)Nc1ccc(CN(C(=O)Nc2c(Cl)c(OC)cc(OC)c2Cl)c2cc(Nc3ccc(N4CCN(C)CC4)cc3)ncn2)cc1
Out: 100

In: Continue with COc1cc2ncnc(-n3nc(-c4ccccn4)nc3N)c2cc1OC
Out: 1.8

In: Item: CNC(=O)c1cc(Oc2ccc(NC(=O)Nc3ccc(Cl)c(C(F)(F)F)c3)cc2)ccn1
Out: 55

In: And for CCN1CCN(C(=O)Cc2ccc(Nc3ncc(F)c(Nc4ccc(C(=O)Nc5ccccc5Cl)cc4)n3)cc2)CC1 ?
Out: 4.9

In: Follow-up item: O=C1NC(=O)/C(=C/c2ccc3nccc(-c4ccncc4)c3c2)S1
Out: 0.15

In: Repeat with O=c1cc(N2CCOCC2)oc2c(-c3cccc4c3sc3ccccc34)cccc12
Out: 65

In: Input COc1ccc(N(C(=O)Oc2c(C)cccc2C)c2ccnc(Nc3ccc(N4CCN(C)CC4)cc3)n2)c(OC)c1
Out: 78

In: One more compound: CN(C)C/C=C/C(=O)Nc1ccc(C(=O)Nc2cccc(Nc3nccc(-c4cccnc4)n3)c2)cc1
Out: 2.2

In: // query: Cc1n[nH]c2ccc(-c3cncc(OC[C@@H](N)Cc4c[nH]c5ccccc45)c3)cc12
Out: 0.05

In: Likewise for CNC(=O)c1ccc(Nc2cc(Nc3ccccc3S(=O)(=O)C(C)C)c3cc[nH]c3n2)nc1 ?
Out: 4.7

In: What do we get for COc1cc2ncn(-c3cc(OCc4ccccc4C(F)(F)F)c(C(N)=O)s3)c2cc1OC ?
Out: 47

In: Next compound up: N#CCNC(=O)c1ccc(-c2ccnc(Nc3ccc(N4CCOCC4)cc3)n2)cc1
Out: 7.4

All figures here come from the kinase profiling compilation of Christmann-Franck et al. (2016).
